Test system: woolly cupgrass (Eriochloa villosa)
protocolDetails: Test B pre-/postemergence plant response
Type: in vivo
measurementParameters: Postemergence, 125 g ai/ha; visual rating after 13 to 15 days, scale 0 (no effect) to 100 (complete control)
experimentalReadout: Plant response rating, Cupgrass, Woolly

Record excerpt, results attached:
molecule: O=C1CCCC(O)=C1C(=O)c1cnc(C2CC2)n(-c2ccccc2)c1=O [Compound 87]
experimentalReadout: Plant response rating, Cupgrass, Woolly
val: 75
//
molecule: O=C1CCCC(O)=C1C(=O)c1cnc(-c2ccccc2)n(C2CC2)c1=O [Compound 90]
experimentalReadout: Plant response rating, Cupgrass, Woolly
val: 50
//
molecule: O=C1CCCC(O)=C1C(=O)c1cnc(-c2ccccc2)n(-c2ccc(F)cc2)c1=O [Compound 24]
experimentalReadout: Plant response rating, Cupgrass, Woolly
val: 95

q: What value of Plant response rating, Cupgrass, Woolly has been reported for the following molecule? COCCOCCn1c(-c2ccccc2)ncc(C(=O)C2=C(O)CCCC2=O)c1=O [Compound 91]
a: 98

q: Repeat for the following molecule: CCCCn1c(CCC)ncc(C(=O)C2=C(O)CCCC2=O)c1=O [Compound 75]
a: 55

q: Repeat for the following molecule: Cc1cccc(-n2c(-c3ccccc3)ncc(C(=O)C3=C(O)CCCC3=O)c2=O)c1F [Compound 58]
a: 70

q: Repeat for the following molecule: CCCc1ncc(C(=O)C2=C(O)CCCC2=O)c(=O)n1CCC [Compound 72]
a: 50

q: Repeat for the following molecule: Cc1ccc(Cl)cc1-n1c(-c2ccccc2)ncc(C(=O)C2=C(O)CCCC2=O)c1=O [Compound 52]
a: 85
